test system: HL-60; experiment: NCI tumour cell line growth inhibition, 48 h
Active and inactive are the calls of the source. Rule as the data show it: active = GI50 up to about 1.1 µM and inactive = higher.
Pick one and only one: 1.0 = active, 0.0 = inactive

Some entries whose results are on file:
Call for entry "O=C(Oc1ccccc1)c1cc2cc(CCl)ccc2oc1=O" : 0.0

Hi, sorry to bother you, what did the test record for CC1C/C(=C\c2ccc(OC(=O)C(C)(C)C)cc2)C(=O)/C(=C/c2ccc(OC(=O)C(C)(C)C)cc2)C1 (stereo not given) ? 0.0

Hey, what did the test say about Cc1ccc([N+](=O)[O-])cc1NC(=O)C(=O)C1CCC2=C(Sc3ccccc3N2)C1=O (stereo not given) ? 0.0

So what was the verdict on O=C(O)C1C(C(=O)O)C2C(=O)C=CC1N2Cc1ccccc1 (stereo not given) in this test? 0.0

Status in this test for "N#Cc1cccc(-n2[nH]c(=O)ccc2=O)c1" ? 0.0

Others:
Could you please tell me the result logged for C/C(=N\[N+](C)(C)C)C(c1ccccc1)C1(c2ccccc2)C(c2ccccc2)=C1c1ccccc1 (stereo not given) in this assay? 0.0

Per the assay record, what outcome was assigned to "COc1ccc(C(c2ccc(C(C)C)cc(OC)c2=O)c2ccc(C(C)C)cc(OC)c2=O)cc1" ? 0.0

I'd appreciate the recorded outcome for O=C1OCCC1C(O)C1c2ccccc2-c2ccccc21 (stereo not given) from this test. 0.0

Recorded call for C=C1C(=O)C23CC1CCC2C12CO[C@@]3(O)[C@@H](O)C1C(C)(C)C=CC2=O (stereo not given in full) ? 1.0

# lookup: test call for "N=C(N)N/N=C/c1c(-c2ccc(Cl)c([N+](=O)[O-])c2)nc2sccn12" 0.0

---

test system: NCI-H522; experiment: NCI tumour cell line growth inhibition, 48 h
Activity calls are given as the source filed them. Cut-off read from the data, not from the text of the source: active = GI50 up to about 1.1 µM and inactive = higher.
Write down one outcome, taken from true (active), false (inactive)

I would be grateful if you could indicate the recorded call for "O=C(CCCN1CCC2(CC1)CC(=O)N(N1CCCCCC1)C2=O)c1ccccc1" . false

# lookup: test call for "Cc1sc2[nH]c(=O)oc(=O)c2c1C" false

---

test system: HCT-116; experiment: NCI tumour cell line growth inhibition, 48 h
Calls of active or inactive are those of the source. Rule as the data show it: active = GI50 up to about 1.1 µM and inactive = higher.
Pick one and only one: True for active, False for inactive

Lab log entry: COCN1C(=O)C2CC(/C=C/C(N)=O)=CN2C(=O)c2ccccc21 (stereo not given) — outcome as called in the assay? False

I'd appreciate the recorded outcome for "O=C(CCCN1CCC2(CC1)CC(=O)N(N1CCCCCC1)C2=O)c1ccccc1" from this test. False

Further cases:
Per the records of this test, what outcome belongs to CC1(C)C(O)C[C@@H](O)[C@@]2(C)C1CC[C@]1(C)C2C[C@@H](O)[C@@H]2C([C@@]3(C)CC[C@@H](C(C)(C)O)O3)CCC21C (stereo not given in full) ? False

Field: outcome | Entry: N/N=C(\c1nc2ccc(Cl)cc2nc1O)C(O)c1ccc(Cl)c(Cl)c1 (stereo not given) False

# lookup: test call for "Cc1cc(-c2nc3ccccc3s2)ccc1NS(=O)(=O)O" False

Test call for this compound, please: "Cc1c(C)c2c(c(N)c1C#N)C(=O)N(O)C2=O" False

Could you please tell me the result logged for "N=C(N)N/N=C/c1c(-c2ccc(Cl)c([N+](=O)[O-])c2)nc2sccn12" in this assay? False

# lookup: test call for "COc1ccc(CN2C(=O)CCC/C=C\[C@H]2CI)cc1" False

What was the test verdict on "COC[C@H](Cc1ccccc1)/N=C/c1ccccc1" ? False

Which result was noted for this compound in the test: "CC(C)(C)n1c(=O)n2n(c1=O)C1c3cccc4cccc(c34)C2C2c3cccc4cccc(c34)C1n1c(=O)n(C(C)(C)C)c(=O)n12" False

Hi team, can someone confirm the assay call for "CC(=O)O[C@@H]1O[Si](C(C)(C)C)(C(C)(C)C)[C@H](C)[C@H]1C" ? False

Entry "Cc1cc(C)c2c(c1C)CN1CN2Cc2c(C)c(C)cc(C)c21" : call = ? False

What did this assay record as the result for "CC(=O)O[C@H]1C(=O)[C@@]2(C)[C@H]([C@H](OC(=O)c3ccccc3)[C@]3(O)C[C@H](OC(=O)[C@H](O)[C@@H](NC(=O)c4ccccc4)C4CCCCC4)C(C)=C1C3(C)C)[C@]1(OC(C)=O)CO[C@@H]1C[C@@H]2O" ? True

Look up the recorded call for "O=C1C(Cl)=C(NCCF)C(=O)c2ncccc21" in this test. False

What outcome does the record of this test show for "O=c1/c(=C/c2ccco2)sc2nc3ccccc3n12" ? False

Status in this test for "Nc1nc(NCCCO)cc(=O)[nH]1" ? False

What classification did "C=CCNC(=O)NC1=CSC2=NC(=O)C3(NN12)c1ccccc1-c1ccccc13" end up with in this test? False

Lab log entry: "c1ccc(CSc2nc(N3CCCCC3)c3cn[nH]c3n2)cc1" — outcome as called in the assay? False

Record request — test call for "O=C1Nc2ccc(Br)cc2/C1=N/NC(=S)Nc1ccc([N+](=O)[O-])cc1" False

Test call, this compound: COc1ccccc1NC(=O)CC(=O)N1N=C(C)C(/N=N/c2ccc(C(=O)O)cc2)C1=O (stereo not given) False

---

This section presents molecules with their documented GI50 values.
tested on: SNB-75; assay: NCI tumour cell line growth inhibition, 48 h
Activity calls are given as the source filed them. No stated cut-off is given here; in the data, active = GI50 up to about 1.1 µM and inactive = higher.

Please review the entries below; each comes with its answer.
What reported GI50 corresponds to "CCOC(=O)Nc1[nH]cc(-c2ccccc2)c1C#N" on SNB-75? > 100 µM (inactive)

Look up GI50 with SNB-75 for this molecule: "COc1ccc2c(=O)c3ccoc3[nH]c2c1" > 100 µM (inactive)

// lookup GI50 | system=SNB-75 | key= "CCCCCCCCCC[C@H](O)[C@H](O)CC[C@@H](O)[C@H]1CC[C@@H]([C@H]2CC[C@H](CCCCCCC[C@@H](O)CC3=C[C@H](C)OC3=O)O2)O1" 2.41 µM (inactive)

Others:
Recall the recorded GI50 for "COc1cc2nc3n(c(=O)c2cc1OC)CCCCC3" with SNB-75 and state it. > 100 µM (inactive)

Notebook: pull reported GI50 for SNB-75, entry COc1cc([C@@H]2c3cc4c(cc3[C@@H](NC(=O)c3ccccc3)C3COC(=O)[C@@H]32)OCO4)cc(OC)c1O (some centres undefined) 5.43 µM (inactive)

I'm curious: which GI50 was measured for "CCN(CC)C(=O)N1CN(c2ccccc2)C2(CCN(CCCSc3ccc(F)cc3)CC2)C1=O" tested on SNB-75? 20.6 µM (inactive)

Find the measured GI50: item C[C@@H]1[C@H](C)N1CC(O)Cn1ccnc1[N+](=O)[O-] (some centres undefined) , target or system SNB-75. > 100 µM (inactive)

Param readout= GI50; system= SNB-75; entry= "COc1ccc(-c2cc(C(=O)Nc3ccc(C)c(C)c3)nc(NC#N)n2)cc1" ; returns value. > 100 µM (inactive)

// lookup GI50 | system=SNB-75 | key= "O=C1C(Cl)=C(Cl)C(=O)N1c1ccc(Cl)c(Cl)c1Cl" > 100 µM (inactive)

---

test system: EKVX; experiment: NCI tumour cell line growth inhibition, 48 h
Activity calls are given as the source filed them. No stated cut-off is given here; in the data, active = GI50 up to about 1.1 µM and inactive = higher.
Bench note: report the call from TRUE (active), FALSE (inactive)

Example entries and their recorded answers appear below.
Any idea what this test logged for COc1ccccc1NC(=O)C(=O)C1C(=O)Nc2ccccc2[S+]1[O-] (stereo unspecified) ? FALSE

Hi, do you know how "CC(=O)O[C@@H]1O[Si](C(C)(C)C)(C(C)(C)C)[C@H](C)[C@H]1C" came out in this test? FALSE

Outcome logged for CC1CN=C(N(Cc2ccccc2)C(=O)Nc2ccc(Cl)c(Cl)c2)S1 (stereo unspecified) in this assay: FALSE

---
What was the test verdict on "Cc1c(C)c2c(c(N)c1C#N)C(=O)N(O)C2=O" ? FALSE

Could you kindly confirm the outcome this assay logged for CCNC1(c2cccc(C)c2)OC(C)(C)c2cccc3cccc1c23 (stereo unspecified) ? FALSE

Field: outcome | Entry: CC1C/C(=C\c2ccc(OC(=O)C(C)(C)C)cc2)C(=O)/C(=C/c2ccc(OC(=O)C(C)(C)C)cc2)C1 (stereo unspecified) FALSE

I would be grateful if you could indicate the recorded call for COP1(=O)OCc2cnccc2O1 (stereo unspecified) . FALSE

// param item: C=C(OC1C(C)=C2C(C1OC(=O)CCCCCCC)C(C)(OC(C)=O)CC(OC(=O)CCC)C1(O)C2OC(=O)C1(C)O)/C(C)=C/C (stereo unspecified) ; yields the recorded call TRUE

Please let me know the test result on file for C#CCNC(Cc1ccccc1)C(=O)O (stereo unspecified) . FALSE

Could you check what this test reported for "Cc1ccc(/C=N/NS(=O)(=O)c2ccccc2)cc1" ? FALSE

State the result this test recorded for "C/N=c1/ssc(=S)n1C(C)C" . FALSE
